tested_on: HLA-A*02:01 (Homo sapiens, UniProt P04439, D140Y/D185E/D98H/E176V/E277Q/G131W/G231S/I119V/I121R/I166T/I218V/L300P/L318F/N151K/N90K/P208A/P217A/Q86G/Q94H/R138H/R169H/T345S)
experimental_protocol: MHC binding assay (UV-ligand exchange, beta2m ELISA)
condition_context: binding of HLA-class I restricted peptides to HLA-A*02:01, β2m ELISA
assay_endpoint: Peptide Exchange (MHC class I binding score, peptide exchange yield)

{"substance": "263 (SQWEDIHVV; listed as Homo sapiens) [compound 263]", "value_reported": "“+++” (≥50 = +++)"}
{"substance": "208 (ILLKTEGINL; listed as Homo sapiens) [compound 208]", "value_reported": "“+++” (≥50 = +++)"}
{"substance": "267 (TLLDWQDSL; listed as Homo sapiens) [compound 267]", "value_reported": "“+++” (≥50 = +++)"}
{"substance": "192 (YIQEYLTLL; listed as Homo sapiens) [compound 192]", "value_reported": "“+++” (≥50 = +++)"}
{"substance": "231 (FLYIRQLAI; listed as Homo sapiens) [compound 231]", "value_reported": "“+++” (≥50 = +++)"}
{"substance": "52 (FLVETGFLHV; listed as Homo sapiens) [compound 52]", "value_reported": "“++++” (≥75% = ++++)"}
{"substance": "168 (YLLDQSFVM; listed as Homo sapiens) [compound 168]", "value_reported": "“++++” (≥75% = ++++)"}
{"substance": "132 (LVYEAIIMV; listed as Homo sapiens) [compound 132]", "value_reported": "“+++” (≥50 = +++)"}
{"substance": "153 (SLLAELHVL; listed as Homo sapiens) [compound 153]", "value_reported": "“+++” (≥50 = +++)"}

###

tested_on: HLA-A*02:01 (Homo sapiens, UniProt P04439, D140Y/D185E/D98H/E176V/E277Q/G131W/G231S/I119V/I121R/I166T/I218V/L300P/L318F/N151K/N90K/P208A/P217A/Q86G/Q94H/R138H/R169H/T345S)
experimental_protocol: MHC binding assay (UV-ligand exchange, beta2m ELISA)
condition_context: binding of HLA-class I restricted peptides to HLA-A*02:01, β2m ELISA
assay_endpoint: Peptide Exchange (MHC class I binding score, peptide exchange yield)

{"substance": "291 (ILLNEDDLVTI; listed as Homo sapiens) [compound 291]", "value_reported": "“+++” (≥50 = +++)"}
{"substance": "348 (ALAKPPVVSV; listed as Homo sapiens) [compound 348]", "value_reported": "“+++” (≥50 = +++)"}
{"substance": "262 (SLWNAGTSV; listed as Homo sapiens) [compound 262]", "value_reported": "“+++” (≥50 = +++)"}
{"substance": "123 (LLLAEAELLTL; listed as Homo sapiens) [compound 123]", "value_reported": "“++” (≥20% = ++)"}
{"substance": "2 (ALHRPDVYL; listed as Homo sapiens) [compound 2]", "value_reported": "“+++” (≥50 = +++)"}
{"substance": "300 (ILLNPAYDVYL; listed as Homo sapiens) [compound 300]", "value_reported": "“+++” (≥50 = +++)"}
{"substance": "219 (ALLNLLESA; listed as Homo sapiens) [compound 219]", "value_reported": "“+++” (≥50 = +++)"}
{"substance": "53 (FLWQHVELVL; listed as Homo sapiens) [compound 53]", "value_reported": "“+++” (≥50 = +++)"}
{"substance": "154 (SLLAELHVLTV; listed as Homo sapiens) [compound 154]", "value_reported": "“++++” (≥75% = ++++)"}
{"substance": "382 (YLLPLLQRL; listed as Homo sapiens) [compound 382]", "value_reported": "“++++” (≥75% = ++++)"}
{"substance": "110 (LLFDHLEPMEL; listed as Homo sapiens) [compound 110]", "value_reported": "“+++” (≥50 = +++)"}
{"substance": "104 (KLILLDTPLFL; listed as Homo sapiens) [compound 104]", "value_reported": "“+++” (≥50 = +++)"}
{"substance": "89 (ILDFGTFQL; listed as Homo sapiens) [compound 89]", "value_reported": "“+++” (≥50 = +++)"}
{"substance": "86 (HLYPGAVTI; listed as Homo sapiens) [compound 86]", "value_reported": "“+++” (≥50 = +++)"}
{"substance": "87 (HQIEAVDGEEL; listed as Homo sapiens) [compound 87]", "value_reported": "“++” (≥20% = ++)"}
{"substance": "307 (LLLTKPTEA; listed as Homo sapiens) [compound 307]", "value_reported": "“+++” (≥50 = +++)"}
{"substance": "295 (ALLQKLQQL; listed as Homo sapiens) [compound 295]", "value_reported": "“+++” (≥50 = +++)"}
{"substance": "20 (ALVDPGPDFVV; listed as Homo sapiens) [compound 20]", "value_reported": "“+++” (≥50 = +++)"}
{"substance": "59 (FVFGDENGTVSL; listed as Homo sapiens) [compound 59]", "value_reported": "“+++” (≥50 = +++)"}

FYI, the data here is from patent US10064928B2.
